Data credit: patent US8778964B2

- Test system: recombinant guanylate cyclase reporter cell line
- ASSAY COMMENT: Action on recombinant guanylate cyclase reporter cell line (MEC)
- Type: cell-based
- CONDITION INFO: in some cases mean values obtained from individual determinations
- Experimental: B-2. Action on Recombinant Guanylate Cyclase Reporter Cell Line The cellular action of the compounds according to the invention is determined on a recombinant guanylate cyclase reporter cell line, as described in F. Wunder et al., Anal. Biochem. 339, 104-112 (2005). Representative values (MEC=minimal effective concentration) for the compounds according to the invention are shown in the following table (in some cases as mean values obtained from individual determinations): […]
Measured minimal effective concentration, listed per entry for reference.
Give the number; µM is assumed, so skip it.

Before answering, review these 7 worked examples.
Cc1nc2c(OCC3CCCCC3)cccn2c1C(=O)NC(C)(C)C(C)O (centres unmarked) [Example 87] = 1
Cc1nc2c(OCc3c(F)cccc3F)cccn2c1C(=O)NCCOCCO [Example 24] = 1
CSCC[C@H](CO)NC(=O)c1c(C)nc2c(OCc3c(F)cccc3F)cccn12 [Example 25] = 0.1
CCCC[C@H](CO)NC(=O)c1c(C)nc2c(OCc3c(F)c(F)cc(F)c3F)cccn12 [Example 7] = 0.3
Cc1nc2c(OCc3c(F)cccc3F)cccn2c1C(=O)NC(CO)c1ccc(S(C)(=O)=O)cc1 (racemic) [Example 120] = 1
Cc1nc2c(OCC3CCCCC3)cccn2c1C(=O)NC[C@H](O)CO [Example 68] = 0.03
Cc1nc2c(OCc3c(F)cccc3F)cccn2c1C(=O)NC(CC(F)(F)F)C(C)(C)O (racemic) [Example 148] = 0.03

Problem: Retrieve minimal effective concentration measured for CCCC[C@H](CO)NC(=O)c1c(C)nc2c(OCc3c(F)cccc3F)cccn12 [Example 1] and print it.
Result: 0.05

---

- System: recombinant guanylate cyclase reporter cell line
- ASSAY COMMENT: Action on recombinant guanylate cyclase reporter cell line (MEC)
- Format: cell-based
- CONDITION INFO: in some cases mean values obtained from individual determinations
ASSAY METRIC: minimal effective concentration
Record the result as a number with its unit.

Answered cases to consult:
Cc1nc2c(OCC3CCCCC3)cccn2c1C(=O)N[C@@H]1CCCC[C@H]1O (racemic) [Example 78] = 0.3 µM
Cc1nc2c(OCC3CCCCC3)cccn2c1C(=O)N[C@H](CO)CC(C)C [Example 95] = 3 µM
CCCC[C@H](CO)NC(=O)c1c(C)nc2c(OCc3c(C)cccc3C)cccn12 [Example 13] = 3 µM

// below: minimal effective concentration requested for another compound
Problem: Identify minimal effective concentration associated with the compound Cc1nc2c(OCc3c(F)cccc3F)cccn2c1C(=O)NC(CO)COCC(C)C (racemic) [Example 163]
Result: 1 µM

---

- Test system: recombinant guanylate cyclase reporter cell line
- ASSAY COMMENT: Action on recombinant guanylate cyclase reporter cell line (MEC)
- Assay type: cell-based
- CONDITION INFO: in some cases mean values obtained from individual determinations
Each record is given 1 (yes) if its reported minimal effective concentration is strictly below 0.3 µM. Records at or above 0.3 µM are given 0 (no).

Reference set, count: 5
CC[C@H](CO)NC(=O)c1c(C)nc2c(OCC3CCCCC3)cccn12 [Example 72] = 1 (yes)
CC[C@H](CO)NC(=O)c1c(C)nc2c(OCc3cccc(Cl)c3Cl)cccn12 [Example 45] = 0 (no)
Cc1nc2c(OCc3c(F)cccc3F)cccn2c1C(=O)NC(CO)CO [Example 26] = 0 (no)
Cc1nc2c(OCc3c(F)cccc3F)cccn2c1C(=O)NC(C)C(O)C(F)(F)F (single isomer, unassigned) [Example 145] = 0 (no)
CC[C@H](CO)NC(=O)c1c(C)nc2c(OCc3c(F)cccc3F)cccn12 [Example 43] = 1 (yes)

Problem: Regarding CCCC[C@H](CO)NC(=O)c1c(C)nc2c(OCc3c(F)cccc3F)c(F)ccn12 [Example 177] , kindly confirm whether its minimal effective concentration is beneath 0.3 µM.
Result: 0 (no)

---

- Test system: recombinant guanylate cyclase reporter cell line
- ASSAY COMMENT: Action on recombinant guanylate cyclase reporter cell line (MEC)
- Format: cell-based
- CONDITION INFO: in some cases mean values obtained from individual determinations
List of minimal effective concentration values.
Note: a bare number is incomplete; add the unit.

// below: answered compounds
Cc1nc2c(OCc3c(F)cccc3F)cccn2c1C(=O)NC(CO)c1ccc(F)cc1 (single isomer, unassigned; ent-8) [Example 107] = 0.1 µM
CCCC[C@@H](NC(=O)c1c(C)nc2c(OCc3c(F)cccc3F)cccn12)C(O)C(F)(F)F (some centres unmarked) [Example 141] = 0.1 µM
C#Cc1cc(OCc2c(F)cccc2F)c2nc(C)c(C(=O)N[C@@H](CO)CCCC)n2c1 = 0.1 µM

Problem: Fill in reported minimal effective concentration for this entry: Cc1nc2c(OCc3c(F)cccc3F)cccn2c1C(=O)NC[C@@H]1CCCC[C@H]1O (racemic)
Result: 0.3 µM

Problem: Output measured minimal effective concentration for this item: Cc1nc2c(OCc3cccc(Cl)c3Cl)cccn2c1C(=O)NCCC1(O)CCCC1
Result: 0.3 µM

Problem: Query minimal effective concentration for CCCC[C@H](CO)NC(=O)c1c(C)nc2c(OCCC(C)C)cccn12
Result: 1 µM

Problem: Give minimal effective concentration for the following compound: Cc1nc2c(OCc3c(Cl)cccc3Cl)cccn2c1C(=O)NC(CO)CO
Result: 10 µM

Problem: Give the value of minimal effective concentration reported for the following: Cc1nc2c(OCC3CCCCC3)cccn2c1C(=O)N[C@H]1CCC[C@@H]1O (racemic)
Result: 0.1 µM

---

This section presents compounds with their documented minimal effective concentration values.
- Test system: recombinant guanylate cyclase reporter cell line
- ASSAY COMMENT: Action on recombinant guanylate cyclase reporter cell line (MEC)
- Format: cell-based
- CONDITION INFO: in some cases mean values obtained from individual determinations
Structures can show the parent of a compound that is named as a salt.
Numbers only; they are read as µM.

A selection of reference data follows.
Cc1nc2c(OCc3c(F)cccc3F)cccn2c1C(=O)N[C@H]1CC[C@H](O)CC1 = 1
Cc1cc(OCCC(C(F)(F)F)C(F)(F)F)c2nc(C)c(C(=O)NC3CCCC3O)n2c1 (stereo not shown) = 3
Cc1nc2c(OCC3CCCCC3)cccn2c1C(=O)NCCO [Example 76, formate] = 0.3

Let us move to another entry and its minimal effective concentration.
Problem: Provide minimal effective concentration, system recombinant guanylate cyclase reporter cell line, entry CCC[C@@H](CO)NC(=O)c1c(C)nc2c(OCC3CCCCC3)cccn12
Result: 1

---

The reader will find reported minimal effective concentration values listed item by item below.
- System: recombinant guanylate cyclase reporter cell line
- ASSAY COMMENT: Action on recombinant guanylate cyclase reporter cell line (MEC)
- Type: cell-based
- CONDITION INFO: in some cases mean values obtained from individual determinations
Express the result in µM but write the number alone.

Problem: Determine reported minimal effective concentration for CCCC[C@H](CO)NC(=O)c1c(C)nc2c(OCCC(C(F)(F)F)C(F)(F)F)cc(C)cn12 ; test system: recombinant guanylate cyclase reporter cell line.
Result: 0.3

Problem: Using recombinant guanylate cyclase reporter cell line as the test system, report measured minimal effective concentration of CCC(O)CNC(=O)c1c(C)nc2c(OCCC(C(F)(F)F)C(F)(F)F)cc(C)cn12 (racemic) .
Result: 3

Problem: Report the value of minimal effective concentration obtained on recombinant guanylate cyclase reporter cell line for Cc1nc2c(OCc3c(F)cccc3F)cccn2c1C(=O)NC(CCCC(F)(F)F)C(C)(C)O (single isomer, unassigned; ent-8) [Example 156] .
Result: 0.03

Problem: Param request: minimal effective concentration | system recombinant guanylate cyclase reporter cell line | item Cc1nc2c(OCc3c(F)cccc3F)cccn2c1C(=O)NC(C)(C)[C@H](C)O
Result: 1

Problem: Specify minimal effective concentration for Cc1nc2c(OCC3CCCCC3)cccn2c1C(=O)NC(CO)COC(C)(C)C (stereo not shown) , system recombinant guanylate cyclase reporter cell line.
Result: 3

Problem: Write down measured minimal effective concentration (recombinant guanylate cyclase reporter cell line) for this compound. CCCOCC(CO)NC(=O)c1c(C)nc2c(OCc3c(F)cccc3F)cccn12 (racemic)
Result: 0.3

Problem: // fetch minimal effective concentration; item: Cc1nc2c(OCc3c(F)cccc3F)cccn2c1C(=O)NC1(CO)CCC1 ; system: recombinant guanylate cyclase reporter cell line
Result: 0.3

Problem: Quote recombinant guanylate cyclase reporter cell line minimal effective concentration for entry CC[C@@H](CO)NC(=O)c1c(C)nc2c(OCC3CCCCC3)cccn12 .
Result: 1

Problem: Under recombinant guanylate cyclase reporter cell line, report minimal effective concentration for CCCCC(NC(=O)c1c(C)nc2c(OCCC(C)C)cc(C)cn12)C(C)(C)O (stereo not shown)
Result: 2

Problem: Give minimal effective concentration for Cc1nc2c(OCC3CCCCC3)cccn2c1C(=O)NC[C@@H](O)CO tested on recombinant guanylate cyclase reporter cell line.
Result: 0.3
